Target: ATP-dependent translocase ABCB1 (Homo sapiens)
Friendly reminder: EC50 below 2000 nM is Condition met, at or above is Condition not met.

>>> print(df.to_string())
                             chemicalsmiles      discretelabel
0  C[C@H](N[C@@H]1c2cc(C#N)ccc2OC(C)(C)[C@H]1O)C(=O)OC(C)(C)C  Condition not met
1  CCC(=O)c1ccc(OC[C@H](O)CN2CCN(c3ccccc3C)CC2)cc1      Condition met
2  O=C(CCc1ccccc1)c1ccccc1OC[C@H](O)CN1CCN(c2ccccc2)CC1      Condition met
3  CCCN(C[C@@H](O)COc1ccccc1C(=O)CCc1ccccc1)C(=O)c1ccccc1      Condition met
4  CCN(CC)CCC[C@H](C)N[C@@H]1c2ccccc2N(C(=O)c2ccc(C)cc2)[C@H](C)[C@@H]1O  Condition not met
5  COc1cccc(N2CCN(C[C@@H](O)COc3ccccc3C(=O)CCc3ccccc3)CC2)c1      Condition met
6  Cc1ccc(C(=O)N2c3ccccc3[C@H](NCc3ccccc3)[C@@H](O)[C@H]2C)cc1  Condition not met
7  O=C(CCc1ccccc1)c1ccc(OC[C@H](O)CN2CCOCC2)cc1  Condition not met
8  Cc1ccccc1N1CCN(C[C@@H](O)Cn2c(C)c(C(=O)c3ccccc3)c(=O)n2-c2ccccc2)CC1      Condition met

---

The molecules listed here are annotated with their EC50.
Target: ATP-dependent translocase ABCB1 (Homo sapiens, UniProt P08183)
Sequence (P08183 whole entry): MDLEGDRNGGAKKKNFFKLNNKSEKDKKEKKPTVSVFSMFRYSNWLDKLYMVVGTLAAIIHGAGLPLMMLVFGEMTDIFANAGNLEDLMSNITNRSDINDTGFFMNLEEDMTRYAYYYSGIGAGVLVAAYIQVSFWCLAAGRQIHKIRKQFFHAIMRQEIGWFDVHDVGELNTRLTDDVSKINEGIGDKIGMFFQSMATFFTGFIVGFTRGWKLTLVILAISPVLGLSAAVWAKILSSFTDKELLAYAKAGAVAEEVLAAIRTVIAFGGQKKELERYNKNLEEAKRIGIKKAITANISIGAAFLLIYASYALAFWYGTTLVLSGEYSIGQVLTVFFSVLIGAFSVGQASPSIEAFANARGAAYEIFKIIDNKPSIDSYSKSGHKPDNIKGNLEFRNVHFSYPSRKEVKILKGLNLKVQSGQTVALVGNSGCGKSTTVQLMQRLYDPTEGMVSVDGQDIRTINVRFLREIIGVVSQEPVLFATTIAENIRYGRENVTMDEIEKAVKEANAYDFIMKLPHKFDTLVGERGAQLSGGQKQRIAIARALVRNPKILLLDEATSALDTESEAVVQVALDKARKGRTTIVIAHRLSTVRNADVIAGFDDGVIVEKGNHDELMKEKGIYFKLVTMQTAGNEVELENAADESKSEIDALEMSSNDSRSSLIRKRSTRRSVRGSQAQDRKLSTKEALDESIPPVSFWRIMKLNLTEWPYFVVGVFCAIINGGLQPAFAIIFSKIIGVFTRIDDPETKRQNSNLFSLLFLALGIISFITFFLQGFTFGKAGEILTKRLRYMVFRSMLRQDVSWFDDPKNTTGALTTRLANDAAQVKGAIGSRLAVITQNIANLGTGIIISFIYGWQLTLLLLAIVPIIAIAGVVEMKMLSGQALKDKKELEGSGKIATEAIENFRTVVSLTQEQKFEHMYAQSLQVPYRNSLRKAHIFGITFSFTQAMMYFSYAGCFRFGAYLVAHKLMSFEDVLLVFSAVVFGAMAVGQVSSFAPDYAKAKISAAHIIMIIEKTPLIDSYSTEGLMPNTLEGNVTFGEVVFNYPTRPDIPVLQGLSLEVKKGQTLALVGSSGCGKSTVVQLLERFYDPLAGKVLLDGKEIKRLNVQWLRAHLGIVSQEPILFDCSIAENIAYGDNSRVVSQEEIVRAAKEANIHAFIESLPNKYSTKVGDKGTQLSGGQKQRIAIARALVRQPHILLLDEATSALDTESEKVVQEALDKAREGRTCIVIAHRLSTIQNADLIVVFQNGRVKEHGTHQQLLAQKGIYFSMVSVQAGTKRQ
readoutType: EC50 (µM)

>>> print(df.to_string())
                                    molecule  unitabbrev  measurednumber
 0      CCC(=O)c1ccc(OC[C@H](O)CN2CCCCC2)cc1          µM            33.1
 1  O=C(CCc1ccccc1)c1ccc(OC[C@H](O)CN2CCCCC2)cc1          µM           0.977
 2  CC(C)[C@@H](CCl)N(C)[C@@H]1C2C=C(C#N)C=CC2OC(C)(C)[C@H]1O (some centres undefined)          µM            2.24
 3  CC(C)(C)OC(=O)N1CCN(C[C@@H](O)COc2ccccc2C(=O)c2ccccc2)CC1          µM           0.871
 4  C[C@@H](C(=O)OC(C)(C)C)N(C)[C@@H]1c2cc(C#N)ccc2OC(C)(C)[C@H]1O          µM            3.98
 5  CC(C)(C)OC(=O)C(Cc1ccccc1)N[C@@H]1c2cc(C#N)ccc2OC(C)(C)[C@H]1O (some centres undefined)          µM            0.55
 6  CC(C)[C@@H](N[C@H]1c2ccccc2OC(C)(C)[C@@H]1O)C(=O)OC(C)(C)C          µM            1.35
 7  CC(=O)c1cc(C)ccc1OC[C@H](O)CN1CCN(C[C@H](O)COc2ccccc2C(=O)c2ccccc2)CC1          µM            9.55
 8  COc1ccccc1N1CCN([C@H]2c3ccccc3N(C(=O)c3ccc(C)cc3)[C@H](C)[C@@H]2O)CC1          µM            3.55
 9  CC(=O)c1cccc(OC[C@H](O)CN2CCN(c3ccccc3C)CC2)c1          µM           0.537
10  O=C(CCc1ccccc1)c1ccc(OC[C@H](O)CNCCC(c2ccccc2)c2ccccc2)cc1          µM           0.501
11  CCCNC[C@@H](O)Cn1c(C)c(C(=O)c2ccccc2)c(=O)n1-c1ccccc1          µM             186
12  CCC(=O)c1ccc(OC[C@H](O)CN2CCN(c3ccc(F)cc3)CC2)cc1          µM            1.45
13  Cc1ccc(OC[C@H](O)CN2CCCCC2)c(C(=O)CCc2ccccc2)c1          µM           0.263
14  O=C(CCc1cccc2ccccc12)c1cccc(OC[C@H](O)CN2CCOCC2)c1          µM           0.631
15  Cc1cccc(N2CCN(C[C@@H](O)COc3ccc(C(=O)c4ccccc4)cc3)CC2)c1C          µM           0.661
16  Cc1cccc(N2CCN(C[C@H]3CC(=O)c4ccccc4O3)CC2)c1C          µM            2.04
17  Cc1c(C(=O)CCc2ccccc2)c(=O)n(-c2ccccc2)n1C[C@H](O)CNC(C)C          µM            11.7
18  CCCNC[C@@H](O)COc1ccc(C)cc1C(=O)c1ccccc1          µM             1.2
19  CC(C)[C@H]1C(=O)O[C@@H]2[C@H](c3cc(C#N)ccc3OC2(C)C)N1C          µM            16.6
20  CC1(C)Oc2ccc(C#N)cc2[C@H]2N[C@@H](Cc3ccccc3)C(=O)O[C@@H]21          µM            2.69
21       CC(=O)c1cccc(OC[C@H](O)CN2CCOCC2)c1          µM             129
22  O=C([C@@H]1Oc2ccccc2[C@@H]1CCc1ccccc1)N1CCCCC1          µM            6.61
23  O=C(CCc1ccccc1)c1ccccc1OC[C@H](O)CN1CCN(Cc2ccccc2)CC1          µM           0.661
24  CC(C)[C@H]1C(=O)O[C@H]2[C@@H](c3cc(C#N)ccc3OC2(C)C)N1C          µM            47.9
25  Cc1ccc(OC[C@H](O)CN2CCN(c3ccc(F)cc3)CC2)c(C(=O)CCc2ccccc2)c1          µM           0.245
26  Cc1c(C(=O)c2ccccc2)c(=O)n(C)n1C[C@H](O)CN(C(C)C)C(C)C          µM              24
27  Cc1ccc(C(=O)N2c3ccccc3[C@@H](N3CCCC3)[C@@H](O)[C@H]2C)cc1          µM            7.94
28  O=C(c1ccccc1)c1ccc(OC[C@H](O)CN2CCCCC2)cc1          µM            2.19
29  COc1ccccc1N1CCN(C[C@@H](O)c2oc3ccccc3c2CCc2ccccc2)CC1          µM           0.178
30  CNC1c2cc(C#N)ccc2OC(C)(C)C1O (centres undefined)          µM             776
31  CCOc1ccccc1NC(=O)C1=C(C)NC(=S)N[C@@H]1c1cccs1          µM            8.71
32  CCC(=O)c1ccccc1OC[C@H](O)CN1CCN(Cc2ccccc2)CC1          µM            1.45
33  Cc1ccc(C(=O)N2c3ccccc3[C@H](N3CCN(Cc4ccccc4)CC3)[C@@H](O)[C@H]2C)cc1          µM           0.427
34  CCCNC[C@@H](O)COc1ccc(O)cc1C(=O)CCc1ccccc1          µM            3.02
35  CC(C)[C@@H](C(=O)OC(C)(C)C)N(C)[C@@H]1c2cc(C#N)ccc2OC(C)(C)[C@H]1O          µM           0.955
36  CC(=O)c1cccc(OC[C@H](O)CN2CCN(c3ccc(F)cc3)CC2)c1          µM              10
37  CC(=O)c1ccccc1OC[C@H](O)CN1CCC(O)(c2ccccc2)CC1          µM            3.16
38   CCC(=O)c1ccccc1OC[C@H](O)CN(C(C)C)C(C)C          µM            4.27
